The reported measurements were obtained from PubChem BioAssay (NCI).

Test system: NCI-H322M lung
protocol.summary: NCI-60 one-dose screen, 48 h
conditions.used: 10 µM unless noted
About 83,000 compounds went through this panel and 20% of them were active in at least one assay; those are over-represented in the sample as a whole. The source made the active and inactive calls. How the source made its calls: active means growth percent below 10; inactive means the rest.
Outcomes you can answer with include only these: label 1 (active), label 0 (inactive)

{"columns": ["compound", "qualitative.label"],
 "data": [
  ["O=C(C[n+]1ccn(CC(OCc2ccc(Cl)cc2Cl)c2ccc(Cl)cc2Cl)c1)c1ccc(F)cc1 (stereo unspecified)", "label 1"]
]}

Task item: Record lookup: outcome of this test for C=C(C)[C@@H]1CC[C@]2(c3ncc(C)o3)CC[C@]3(C)[C@H](CC[C@@H]4[C@@](C)(CCC#N)[C@H](C(=C)C)CC[C@]43C)[C@@H]12 ?
Reply: label 1

Task item: Record lookup: outcome of this test for COc1ccc(/C=C/C=C\C(=O)c2ccc(-n3ccnc3)cc2)cc1 ?
Reply: label 0

Task item: Record lookup: outcome of this test for COc1ccc(-c2cc(-c3ccccc3)nc(NCCNc3ccnc4cc(Cl)ccc34)n2)cc1 ?
Reply: label 1

Task item: Record lookup: outcome of this test for N#C/C(=C(/O)CCCO)c1nc2ccccc2c(=O)[nH]1 ?
Reply: label 0

Task item: Record lookup: outcome of this test for CCCCCCCCCCCCNC(=S)N/N=C/c1ccccc1O ?
Reply: label 0

Task item: Record lookup: outcome of this test for Nn1c(Nc2ccc(S(=O)(=O)Nc3ncccn3)cc2)nnc(/C=C/c2c(O)ccc3ccccc23)c1=O ?
Reply: label 0

Task item: Record lookup: outcome of this test for CC(C)OC(=O)Nc1cc(F)ccc1F ?
Reply: label 0

Task item: Record lookup: outcome of this test for C=C1C(=O)O[C@H]2[C@H]1CC/C(COC(=O)NCc1ccc(Cn3c(=O)sn(-c4ccc(Cl)cc4)c3=O)cc1)=C\CC[C@@]1(C)O[C@@H]21 ?
Reply: label 0

Task item: Record lookup: outcome of this test for COc1ccc2c(c1)C(C)Cc1c(Cl)ncnc1N2C (stereo unspecified) ?
Reply: label 0

Task item: Record lookup: outcome of this test for Cc1ccc(NC(=S)/N=c2/n(-c3ccccc3)nc3n2CCN3C2=NCCN2)cc1 ?
Reply: label 0

Task item: Record lookup: outcome of this test for O=C(NCc1ccc(Cn2c(=O)sn(-c3ccccc3)c2=O)cc1)OCc1ccc2c(Br)cc(Br)c(O)c2n1 ?
Reply: label 0

Task item: Record lookup: outcome of this test for O=C1/C(=C\c2cn(CC(O)CN3CCCCC3)c3ccccc23)c2ccccc2N1c1c(Cl)cccc1Cl (stereo unspecified) ?
Reply: label 1

Task item: Record lookup: outcome of this test for CSc1nc(N)c(N=Nc2ccc(S(=O)(=O)Nc3nnc(C)s3)cc2)c(=O)[nH]1 ?
Reply: label 0

Task item: Record lookup: outcome of this test for CC(=O)Nc1ccc(C=Nc2ccc3ccccc3c2)cc1 ?
Reply: label 0

Task item: Record lookup: outcome of this test for C=C(C)[C@@H]1CC[C@]2(C)[C@H](CC=C3[C@@H]4[C@@H](C)[C@H](C)CC[C@]4(C(N)=O)CC[C@]32C)[C@@]1(C)CCC#N ?
Reply: label 1

Task item: Record lookup: outcome of this test for CCc1ccc(-c2ccc(COc3ccc(CC4SC(=O)NC4=O)cc3)cc2)cc1 (stereo unspecified) ?
Reply: label 0

Task item: Record lookup: outcome of this test for COc1ccc(C(=O)/C=C/c2ccccn2)c(O)c1 ?
Reply: label 0

Task item: Record lookup: outcome of this test for c1cc2ccc3cc2cc1CNCCN1CCNCc2ccc4ccc(cc4c2)CNCCN(CCNC3)CCNCc2ccc3ccc(cc3c2)CNCC1 ?
Reply: label 0
